- System: A498 renal
- Experiment summary: NCI-60 one-dose screen, 48 h (100 = growth as untreated, 0 = no growth, -100 = all killed)
- Details: 10 µM unless noted
This is part of a sample that, as a whole, favours compounds with a hit. Of some 83,000 tested, about 20% had one in any assay.
Measurement name: growth (%)
Response body: numeric value in %, unit text excluded.

Problem: I'd like to know its growth. The compound in question is CCN(CC)CCOC(=O)Nc1ccccc1Cl
Solution: 114

Problem: # iterate: CCCCn1c(=O)[nH]c(N)c(C(c2ccc(F)cc2)c2c(N)[nH]c(=O)n(CCCC)c2=O)c1=O
Solution: 90.1

Problem: Would you kindly repeat that for O=C(Nc1ccccc1)c1sc(-c2cccc(C(F)(F)F)c2)cc1O ?
Solution: 51.2

Problem: Also check O=C1c2ccccc2C(=O)c2cc(Cn3cc[n+](Cc4ccc5ccccc5c4)c3)ccc21
Solution: 98.3

Problem: How about COc1ccc(/C(C)=C(\c2ccc(Cl)cc2)c2ccc(OCCN3CCCC3)cc2)cc1F ?
Solution: 68

Problem: // query: Nc1ccc(CCCCc2ccccc2)c(Cl)c1
Solution: 73.2

Problem: Try the compound CCCCCOC(=O)c1cccc(NC(=O)CN(CC)CC)c1
Solution: 113

Problem: Now the compound Clc1ccc(-c2cn(-c3ccccc3)c(-c3ccccc3)n2)cc1
Solution: 88.4

Problem: Next record, please: COC(=O)/C(=C\c1ccc(OC)cc1)C(=O)N1c2ccccc2Sc2ccccc21
Solution: 7.6

Problem: // repeat for C=C1C(=O)O[C@H]2[C@H]1CC/C(COC(=O)NCc1ccc(Cn3c(=O)sn(CCCCl)c3=O)cc1)=C\CC[C@@]1(C)O[C@@H]21 and report
Solution: 104

====

- System: RPMI-8226 leukemia
- Experiment summary: NCI-60 one-dose screen, 48 h
- Details: 10 µM unless noted
About 83,000 compounds went through this panel and 20% of them were active in at least one assay; those are over-represented in the sample as a whole. Activity calls are given as the source filed them. How the source made its calls: active means growth percent below 10; inactive means the rest.
Field 'call' accepts active, inactive

Problem: Would you mind telling me which call this test gave O=C1CSC(c2ccccc2O)N1c1nnc(Cn2cnnc2)o1 (stereo not given) ?
Solution: inactive

Problem: Cool, now CCCCNC(=O)c1cc(NCc2cc(O)ccc2O)ccc1O
Solution: inactive

Problem: Also CCNCCNc1cc(-c2cccc(C(F)(F)F)c2)c(C#N)c2nc3ccccc3n12 ?
Solution: active

Problem: Same question for CCCCCCN(CCCCCC)CC(O)c1cccc2ccc(Cl)cc12 (stereo not given) please.
Solution: inactive

Problem: Lookup C[C@@H]1CC[C@@H]2[C@@H]1[C@H](OC(=O)/C=C/c1ccccc1)[C@]1(C3CCCCC3)C[C@@H](NC(=O)CO)[C@@]2(C)O1
Solution: inactive

Problem: Repeat for the following compound: O=C1N(c2ccccc2)C(=S)N[C@]12[C@H](c1ccccc1)C1CCCN1[C@]21C(=O)NC2C=CC(Cl)=C[C@H]21 (stereo not given in full)
Solution: inactive

Problem: Entry CC(=O)OCCc1ccccc1 please
Solution: inactive

Problem: Do the same for COc1ccc(C2=NC(=O)NC2c2ccc(OC)cc2)cc1 (stereo not given) please
Solution: inactive

Problem: Further, for OC(CBr)c1ccnc2ccccc12 (stereo not given) ?
Solution: inactive

Problem: Try Cc1ccc(S(=O)(=O)N(CC[C@@H]2C[C@H]2c2cc3ccccc3o2)C(=O)NC2CCCCC2)cc1 next.
Solution: inactive

Problem: Further, for O=c1[nH]c(=O)n(C2CC(O)C(CO)O2)cc1CO (stereo not given) ?
Solution: inactive

Problem: Also C=C(C)[C@@H]1CC[C@]2(C(=O)NCC(=O)O)CC[C@]3(C)[C@H](CC[C@@H]4[C@@]5(C)Cc6c([nH]c7ccccc67)C(C)(C)[C@@H]5CC[C@]43C)[C@@H]12 , if possible.
Solution: inactive

Problem: Please answer likewise for CCc1nc2ccccc2[nH]1
Solution: inactive

Problem: Lookup c1ccc2[nH]c(SSc3nc4ncncc4[nH]3)nc2c1
Solution: inactive

Problem: Entry to check: CCNCCNc1cc(C2CCCC2)c(C#N)c2nc3ccccc3n12
Solution: active

Problem: Follow-up entry: COc1ccc2c(c1)/C(=C\c1sc(=S)[nH]c1O)C(C(=O)O)=N2
Solution: inactive

Problem: Check C=C(C)[C@@H]1CC[C@]2(CO)CC[C@]3(C)[C@H](CC[C@@H]4[C@@]5(C)C=C(C#N)C(=O)C(C)(C)[C@@H]5CC[C@]43C)[C@@H]12 too.
Solution: active

Problem: Can you check Cc1nn(-c2ccccc2)c2c1C(c1ccc([N+](=O)[O-])cc1)C(C#N)=C(N)O2 (stereo not given) next?
Solution: inactive

Problem: What about this compound? CC(c1ccc(-n2cccn2)cc1)c1cnc(N2CCc3ccc(C(N)=O)cc3C2)s1 (stereo not given)
Solution: inactive

Problem: Could you do the same for Cc1cc(N(CCCNc2ccnc3cc(Cl)ccc23)Cc2ccccn2)nc(N2CCCC2)n1 , please?
Solution: inactive
